Origin of the recorded values: patent US20130012466A1

- System: ADR-RES
- test.protocol: Cytotoxicity assay (cell titer-glo and calcein AM), ADR-RES
- condition.notes: read-out: Cytotoxicity IC50, NCI/ADR RES, CTG; NCI/ADR RES; CTG (cell titer-glo) readout; % error in parentheses
quantity.name: IC50 (µM)
Respond numerically; units are µM and should not be typed.

Sample records with IC50:
COc1cc2c(c(OC)c1OC)-c1ccc(OC)c(=O)cc1C(NC(=O)CN(OC)C1OC(COCc3ccccc3)C(OCc3ccccc3)C1OCc1ccccc1)CC2 (centres unmarked) [Col53]
0.046
COc1cc2c(c(OC)c1OC)-c1ccc(OC)c(=O)cc1C(NC(=O)CN(OC)C1OCC(O)C(O)C1O)CC2 [Col22, L-riboside]
2.23

Okay, next one:
Query: Using the record for COc1cc2c(c(OC)c1OC)-c1ccc(OC)c(=O)cc1[C@@H](NC(=O)CN(OC)[C@@H]1O[C@H](CO)[C@H](O)[C@H](O)[C@H]1NC(C)=O)CC2 [Col28, N-acetyl-D-galactosaminoside] , report its IC50.
Result: 9.95
